system: IGROV1 ovarian; experiment: NCI-60 one-dose screen, 48 h (100 = growth as untreated, 0 = no growth, -100 = all killed); conditions: 10 µM unless noted
This is part of a sample that, as a whole, favours compounds with a hit. Of some 83,000 tested, about 20% had one in any assay.
Parameter: growth (%)
Numbers only, in %.

compound=Cn1cc(-c2nn3c(=O)cc(-c4ccccc4)nc3s2)c2cc(F)ccc21 reported_value=65.2
compound=COC[C@]12CC[C@@H](C)[C@H](C)[C@H]1C1=CC[C@@H]3[C@@]4(C)CCCNC(C)(C)[C@@H]4CC[C@@]3(C)[C@]1(C)CC2 reported_value=30.2
compound=CCOP(=O)(OCC)OC[C@]12CCC(C)(C)C[C@H]1C1=CC[C@@H]3[C@@]4(C)C/C(=C\c5cccnc5)[C@H](OP(=O)(OCC)OCC)C(C)(C)[C@@H]4CC[C@@]3(C)[C@]1(C)CC2 reported_value=42.6
compound=COc1ccccc1N1CCN(C2=NN=C(c3cccc(Cl)c3)c3ccccc3C2)CC1 reported_value=21.4
compound=NC(=O)c1c(NC(=O)c2cccc(C(F)(F)F)c2F)sc2c1CCC(=O)C2 reported_value=23.7

Provide growth values for the following items, in order.
1. C#CCOc1ccc(/C=N/Nc2nc(-c3cc(Cl)ccc3Cl)cs2)cc1
2. COc1ccc(-c2ccc3c4c(cccc24)C(=O)N(N2C(=O)c4cccc5cccc(c45)C2=O)C3=O)cc1
3. CCN1C(=O)N(CC)C2SC(N/N=C/C=C/c3ccccc3OC)=NC21 (stereo not drawn)

Response:
64.4
92.4
21.4

* * *

system: 786-0 renal; assay: NCI-60 one-dose screen, 48 h; conditions: 10 µM unless noted
The panel holds about 83,000 compounds, 20% with a hit somewhere; the sample as a whole holds those more often. The source made the active and inactive calls. How the source made its calls: active means growth percent below 10; inactive means the rest.
Log the outcome using a class from class 1 = active, class 0 = inactive

compound=O=C(/C=C/Nc1ccc(S(=O)(=O)O)cc1)c1ccc(F)cc1 class_assignment="class 0"
compound="CCCC(=O)NC(c1cccnc1)c1cc(C(C)=O)c2cccnc2c1O (stereo not given)" class_assignment="class 0"
compound=Nc1nc(-c2cccc([N+](=O)[O-])c2)c(N=Nc2ccccc2Cl)s1 class_assignment="class 0"

Query: Outcome? `COc1cc2c3c(n(CCCNCC4CC4)c(=O)c2cc1OC)-c1cc2c(cc1C3=O)OCO2`
Response: class 1

Query: Please state the recorded outcome for this compound: `Oc1ccc(CSc2nnc(-c3cnccn3)o2)c2cccnc12`
Response: class 0

* * *

system: OVCAR-5 ovarian; experiment: NCI-60 one-dose screen, 48 h (100 = growth as untreated, 0 = no growth, -100 = all killed); details: 10 µM unless noted
Compounds without any hit were thinned out: in the full panel of roughly 83,000, 20% have a hit.
Would you mind telling me the reported growth of each entry?
One number for each entry, in %.

compound=Cc1ccc(NC(=O)c2ccc(CN3CCN(C)CC3)c(I)c2)cc1Oc1ccc(-c2[nH]nc3ncnc(N)c23)cc1 parameter=growth output_unit=% reported_value=95.8
compound=NNC(=O)c1sc2nc(-c3cnccn3)cc(-c3cccs3)c2c1N parameter=growth output_unit=% reported_value=99.1

Give me growth for each of these compounds, listed below.
1. O=C(NCCCNc1cc(-c2cn(-c3ccccc3)nc2-c2cccc(O)c2)ccn1)Nc1cc(C(F)(F)F)cc(C(F)(F)F)c1
2. CN(C)C(=O)C1=NC(CO)C(=O)N(c2ccc(Cl)cc2)N1 (centres undefined)

Response:
1: 88.8; 2: 96.5

* * *

system: SNB-75 CNS; test: NCI-60 one-dose screen, 48 h (100 = growth as untreated, 0 = no growth, -100 = all killed); conditions: 10 µM unless noted
This is part of a sample that, as a whole, favours compounds with a hit. Of some 83,000 tested, about 20% had one in any assay.
Assign growth to each entry below.
Answers are plain numbers, in %.

Some compounds with known growth results, for comparison:
compound=CCNC(=O)Oc1ccc(/C(=C(/C)c2ccccc2)c2ccc(OCCN3CCCC3)cc2)cc1 reported_value=79.4
compound=C#CCOc1ccc(/C=N/Nc2nc(-c3cc(Cl)ccc3Cl)cs2)cc1 reported_value=77.3
compound=O=C(NCCCNc1cc(-c2cn(-c3ccccc3)nc2-c2cccc(O)c2)ccn1)Nc1cccc(C(F)(F)F)c1 reported_value=45

I have 7 compounds here; please give me growth for each one.
1. C#C[C@]1(O)CC[C@H]2[C@@H]3CC=C4c5sc(Nc6ccncc6)nc5CC[C@]4(C)[C@H]3CC[C@@]21C
2. COc1ccc([C@@H]2[C@@H](O)C(=O)N2c2cc(OC)c(OC)c(OC)c2)cc1
3. COc1ccc(N2C(=O)c3cc(OC)c(OC)cc3NC2SCc2ccccc2)cc1 (configuration not stated)
4. COc1ccc(-c2nc3cc(Cl)c(Cl)cc3n2CC(=O)N=Nc2c(O)[nH]c3ccc(Cl)cc23)cc1
5. O=C(Cn1cc(CN2C(=O)c3ccc([N+](=O)[O-])cc3C2=O)nn1)Nc1ccccc1Br
6. O=C(/C=C/c1cccc(O)c1)c1ccc(O)cc1
7. COC[C@]12CC[C@@H](C)[C@H](C)[C@H]1C1=CC[C@@H]3[C@@]4(C)CCCNC(C)(C)[C@@H]4CC[C@@]3(C)[C@]1(C)CC2

Response:
[-49.4, 50.7, 112, 57.9, 87.5, 103, 105]

// for each compound in input: emit growth
1. CC1CCN(S(=O)(=O)c2ncsc2-c2ccccc2)CC1
2. Cc1cc2nc(C(Cl)Cl)nc(-c3ccco3)n2n1
3. Cc1ccc(-c2cc3nc(C(Cl)Cl)nc(-c4ccccc4)n3n2)cc1

Response:
[55.6, 94.5, 99.3]

List growth for every entry below, keeping the order given.
1. COc1ccc(-c2nc3cc(Cl)c(Cl)cc3n2CC(=O)N=Nc2c(O)[nH]c3ccccc23)cc1
2. COc1ccc(-c2no[n+]([O-])c2Nc2ccccc2Br)cc1
3. COc1ccc2c(c1)oc1c3[nH]c4ccccc4c3c3c(c21)C(=O)N(O)C3=O

Response:
[60, 92, 39.7]

Query: Please give the measured growth for this compound: `CC(C)(C)OC(=O)N1CCN(S(=O)(=O)/N=C2\NC(=O)NC2=C(Cl)Cl)CC1`
Response: 99.9

* * *

Provide the reported growth of each item.
system: OVCAR-5 ovarian; experiment: NCI-60 one-dose screen, 48 h (100 = growth as untreated, 0 = no growth, -100 = all killed); settings: 10 µM unless noted
Compounds without any hit were thinned out: in the full panel of roughly 83,000, 20% have a hit. Activity calls are given as the source filed them. Rule for the calls: active = growth percent below 10; inactive = the rest.

Record excerpt, results attached:
molecule=Cc1cc(F)cc(NS(=O)(=O)c2ccc(-c3cnc(C4CC4)o3)cc2)c1 reported_value="43% (inactive)"
molecule="CCN1C(=O)N(CC)C2SC(N/N=C/C=C/c3ccccc3OC)=NC21 (stereo unspecified)" reported_value="37.7% (inactive)"
molecule=COc1ccc([C@@H]2[C@@H](O)C(=O)N2c2cc(OC)c(OC)c(OC)c2)cc1Cl reported_value="28.9% (inactive)"
molecule=COc1ccc([C@H]2[C@H](O)C(=O)N2c2cc(OC)c(OC)c(OC)c2)cc1O reported_value="30.1% (inactive)"
molecule=Brc1cccc(/C=N/Nc2nc(N/N=C/c3cccc(Br)c3)nc(N3CCOCC3)n2)c1 reported_value="72.4% (inactive)"
molecule=CC(=O)NC(C)(C)C(=O)N1CCC[C@H]1C(=O)NC(C)(C)C(=O)N[C@@H](C)C(=O)NC(C)(C)C(=O)NC(C)(C)C(=O)N[C@@H](CCC(N)=O)C(=O)NC(C)(C)C(=O)N[C@H](C(=O)NC(C)(C)C(=O)NCC(=O)N[C@@H](CC(C)C)C(=O)NC(C)(C)C(=O)N1CCC[C@H]1C(=O)N[C@H](C(=O)NC(C)(C)C(=O)NC(C)(C)C(=O)N[C@@H](CCC(N)=O)C(=O)N[C@@H](CCC(N)=O)C(=O)N[C@H](CO)Cc1ccccc1)C(C)C)C(C)C reported_value="45.2% [4.25 µM] (inactive)"

Batch request: growth for each of the following molecules.
1. COC[C@]12CC[C@@H](C)[C@H](C)[C@H]1C1=CC[C@@H]3[C@@]4(C)CCCNC(C)(C)[C@@H]4CC[C@@]3(C)[C@]1(C)CC2
2. CCc1ccc(NC(=O)N[C@@H](Cc2cccc(F)c2)C(=O)N[C@@H]2C(=O)N3CCC[C@H]3C(=O)N3CCCC[C@H]3C(=O)N[C@@H](CO)C(=O)N3C[C@H](C)C[C@H]3C(=O)O[C@H]2C)c(F)c1

Response:
1. 61.6% (inactive)
2. 36.4% (inactive)

Required: growth, one value per molecule below.
1. C#CCOc1ccc(C(Nc2cc(Cl)ccc2Cl)c2nnnn2C2CCCCC2)cc1 (stereo unspecified)
2. CCNC(=NCCCN(C)C)N/C(N)=N/c1nc2ccccc2s1
3. COc1cc(/C=C/C(=O)c2ccc(NC(=O)CSc3nnc(-c4ccc5nc(-c6ccccc6)[nH]c5c4)o3)cc2)cc(OC)c1OC

Response:
["93.1% (inactive)", "95.6% (inactive)", "102% (inactive)"]
